assay: qHTS of pediatric cancer cell lines to identify multiple opportunities for drug repurposing: Primary screen for SK-N-MC cells (AID 1347093); conditions: SK-N-MC viability, CellTiter-Glo luminescence, 48 h; series mostly up to 46 µM
Inconclusive results are not listed. The source made the active and inactive calls. The call rests on the fitted dose curve; in most records, active means well fitted cell-killing curve with a large enough effect; inconclusive means small, poorly fitted or top-dose-only effect; inactive means no such curve, though single readings can be large or run the other way.
The categories you may choose from are active, inactive

CCOC1OC(=O)C[C@H]1NC(=O)[C@@H]1CCCN1C(=O)[C@@H](NC(=O)c1ccc(N)c(Cl)c1)C(C)(C)C (stereo partly specified) | active
CC(=O)c1ccc(S(=O)(=O)NC(=O)NC2CCCCC2)cc1 | inactive
COc1cc(O)c2c(c1)C(=O)c1cc(C)cc(O)c1C2=O | inactive
CC[C@@]1(O)C[C@H](O[C@H]2C[C@H](N(C)C)[C@H](O[C@H]3C[C@H](O)[C@H](O[C@H]4CCC(=O)[C@H](C)O4)[C@H](C)O3)[C@H](C)O2)c2c(cc3c(c2O)C(=O)c2c(O)cccc2C3=O)[C@@H]1C(=O)OC | active
CCC(CC)[C@H](NC(C)=O)[C@@H]1[C@H](O)[C@@H](C(=O)O)C[C@@H]1N=C(N)N | inactive
Cc1ccc(F)c(NC(=O)Nc2ccc(-c3cccc4[nH]nc(N)c34)cc2)c1 | active
COc1cc(NC(=O)c2ccc(-c3ccc(Cl)cc3)o2)cc(OC)c1 | active
CCN(CC)C(=O)c1ccc(O)c(OC)c1 | inactive
O=C1NC(=O)C(=Cc2ccc3c(c2)OC(F)(F)O3)S1 | active
CCc1ccc(C=C2SC(=S)NC2=O)cc1 | inactive

INPUT: Hello, I am checking results. What call was entered for O=C1Nc2ccc(Cl)cc2C(C#CC2CC2)(C(F)(F)F)O1 (stereo unspecified) ?
OUTPUT: active

INPUT: Hello, I am checking results. What call was entered for CCCCCNC(=O)N1CCC(CN(Cc2ccc(Cl)cc2)Cc2ccc([N+](=O)[O-])s2)C1 (stereo unspecified) ?
OUTPUT: active

INPUT: Hello, I am checking results. What call was entered for "NCCS" ?
OUTPUT: inactive
